System: Oryza sativa
test-description: Test Method 1: soil application in paddy fields, phytotoxicity on transplanted paddy field rice plants; note: ranges in brackets are in %
Assay type: in vivo, Oryza sativa (variety: Koshihikari)
details: 1 kg ai/ha, transplanted rice at two-leaf stage, assessed 28 days after application
recorded-metric: Phytotoxicity ORYSA

See these solved cases before continuing.
compound	study-system	Phytotoxicity ORYSA
COC=C(Oc1ccc(Cl)cc1COc1ccccc1C)C(=O)O	Oryza sativa	0 (0)
CCC(=NOCc1ccccc1)OCc1cc(Cl)ccc1OC(=COC)C(=O)OC [Compound 5.541 E isomer]	Oryza sativa	1 (0-10)
COC=C(Oc1ccc(Cl)cc1CON=C(C)C)C(=O)OC	Oryza sativa	1 (0-10)
COC=C(Oc1ccccc1COc1ccccc1C)C(=O)OC	Oryza sativa	3 (20-30)
COC=C(Oc1ccc(Cl)cc1CON=C(C)OCc1ccccc1)C(=O)OC	Oryza sativa	1 (0-10)

INPUT: Look at this compound and give its reported Phytotoxicity ORYSA. COC=C(Oc1ccccc1CON=C(C)OCc1ccccc1)C(=O)OC
OUTPUT: 3 (20-30)

INPUT: What do we get for COC=C(Oc1ccc(Cl)cc1COc1ccccc1C)C(=O)OC ?
OUTPUT: 2 (10-20)

INPUT: Continue with COC=C(Oc1ccc(Cl)cc1CBr)C(=O)OC
OUTPUT: 2 (10-20)

INPUT: Another: COC=C(Oc1ccc(Cl)cc1COC(C)=O)C(=O)OC
OUTPUT: 3 (20-30)

INPUT: Then what about the compound COC=C(Oc1ccc(Cl)cc1CON=C(C)c1ccc(Cl)cc1)C(=O)OC ?
OUTPUT: 3 (20-30)

INPUT: Please do the same for COC=C(Oc1ccc(Cl)cc1CO)C(=O)OC as well.
OUTPUT: 3 (20-30)

INPUT: Quick one: COC=C(Oc1ccccc1CON=C(C)c1ccc(Cl)cc1)C(=O)OC
OUTPUT: 3 (20-30)
